# ASSAYED_TARGET: HRgpA-6H (Porphyromonas gingivalis) (UniProt P28784)
# PROTOCOL: ELISA, FASEBA Fab on coated HRgpA-6H
QUANTITY_MEASURED: OD450nm
// print number alone

Data request: What does the record list as OD450nm for KB001 mouse Fab VL N54F (Fab, V domains shown) VH: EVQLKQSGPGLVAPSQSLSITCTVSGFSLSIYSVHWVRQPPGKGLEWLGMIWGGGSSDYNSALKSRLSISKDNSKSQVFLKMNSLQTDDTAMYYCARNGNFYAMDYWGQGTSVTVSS VL: QIVLTQSPAIMSASLGERVTMTCTASSSVSSSFLHWYQQKPGSSPQLWIYSTSFLASGVPARFSGSGSGTSYSLTISSMEAEDAATYYCHQYHHSPYIYTFGGGTKLEIK ?
Data returned: 0.765

Data request: What does the record list as OD450nm for KB001 mouse Fab VL S27W (Fab, V domains shown) VH: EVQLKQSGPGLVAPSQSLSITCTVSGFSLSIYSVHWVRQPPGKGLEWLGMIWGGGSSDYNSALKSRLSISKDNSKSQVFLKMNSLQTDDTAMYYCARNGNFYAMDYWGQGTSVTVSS VL: QIVLTQSPAIMSASLGERVTMTCTASWSVSSSFLHWYQQKPGSSPQLWIYSTSNLASGVPARFSGSGSGTSYSLTISSMEAEDAATYYCHQYHHSPYIYTFGGGTKLEIK ?
Data returned: 0.601

Data request: What does the record list as OD450nm for KB001 mouse Fab VL T24Q (Fab, V domains shown) VH: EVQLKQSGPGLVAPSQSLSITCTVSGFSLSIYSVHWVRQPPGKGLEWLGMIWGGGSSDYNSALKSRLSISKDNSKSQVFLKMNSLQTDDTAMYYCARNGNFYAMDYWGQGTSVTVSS VL: QIVLTQSPAIMSASLGERVTMTCQASSSVSSSFLHWYQQKPGSSPQLWIYSTSNLASGVPARFSGSGSGTSYSLTISSMEAEDAATYYCHQYHHSPYIYTFGGGTKLEIK ?
Data returned: 0.765
